pIC50: −log10 of the molar value.
Let's go through some recorded pIC50 values for human Gal-3 (hGal-3) (Homo sapiens (Human), UniProt P17931) together.
quantity-measured: pIC50

Sample records with pIC50:
{"compound": "COc1ccc(F)cc1-c1cn([C@H]2[C@@H](O)[C@@H](CO)O[C@H](CC3CC(C4CCN(C(=O)OC(C)(C)C)CC4)=NO3)[C@@H]2O)nn1 (some centres unmarked)", "experimental-target": "human Gal-3 (hGal-3) (Homo sapiens (Human), UniProt P17931)", "quantity-measured": "pIC50", "measured-value": 5.76}
{"compound": "CO[C@@H]1[C@@H](n2cc(-c3ccc(F)c(F)c3F)nn2)[C@@H](O)[C@@H](CO)O[C@@H]1Cc1cc(C2(C)CCOCC2)no1", "experimental-target": "human Gal-3 (hGal-3) (Homo sapiens (Human), UniProt P17931)", "quantity-measured": "pIC50", "measured-value": 7.31}

1 = CO[C@@H]1[C@@H](n2cc(-c3cc(F)c(F)c(F)c3)nn2)[C@@H](O)[C@@H](CO)O[C@@H]1Cc1cc(C2CCN(S(=O)(=O)N3CCCC3)CC2)on1
2 = CC(C)(C)OC(=O)NC1CCC(c2cc(C[C@H]3O[C@H](CO)[C@H](O)[C@H](n4cc(-c5cc(F)c(F)c(F)c5)nn4)[C@H]3O)no2)CC1 (some centres unmarked) [Ex 1.81]
Challenge: Input pair: 1 , 2 . Output: entry with lower pIC50. Please respond with the label that marks your chosen entry.
Response given: 2

I = CO[C@@H]1[C@@H](n2cc(-c3ccc(C)c(F)c3F)nn2)[C@@H](O)[C@@H](CO)O[C@@H]1Cc1cc(C2CCNC(=O)CC2)no1 (some centres unmarked)
II = CC(C)(C)OC(=O)N1CCC(C2=NOC(C[C@H]3O[C@H](CO)[C@H](O)[C@H](n4cc(-c5cc(F)c(Cl)c(F)c5)nn4)[C@H]3O)C2)CC1 (some centres unmarked)
III = CC(C)(C)OC(=O)NC1CCC(c2cc(C[C@H]3O[C@H](CO)[C@H](O)[C@H](n4cc(-c5cc(F)c(F)c(F)c5)nn4)[C@H]3O)no2)CC1 (some centres unmarked) [Ex 1.80]
IV = CO[C@@H]1[C@@H](n2cc(-c3cc(F)c(F)c(F)c3)nn2)[C@@H](O)[C@@H](CO)O[C@@H]1Cc1cc(C2CCN(C(=O)NC(C)C)CC2)on1
Challenge: In this exercise, place the 4 compounds in ascending sequence of their recorded pIC50. Form entry: ranked labels (order as requested).
Response given: II, III, I, IV

A = CO[C@@H]1[C@@H](n2cc(-c3cc(F)c(F)c(F)c3)nn2)[C@@H](O)[C@@H](CO)O[C@@H]1Cc1cc(C2CCN(C(=O)CC(F)(F)F)CC2)on1
B = CO[C@@H]1[C@@H](n2cc(-c3cc(F)c(F)c(F)c3)nn2)[C@@H](O)[C@@H](CO)O[C@@H]1CC1CN(C2CCN(S(=O)(=O)C(F)(F)F)CC2)C(=O)O1 (mixture of isomers)
Challenge: Between the entries labelled A and B , which has a larger pIC50 value on record? Bench note: the answer is the label of the chosen record.
Response given: A
